Hello, the source for this data is ChEMBL document CHEMBL1201862, in case you need it.

# Test system: OVCAR-5
# ASSAY_PROTOCOL: NCI tumour cell line growth inhibition, 48 h
Active and inactive are the calls of the source. No stated cut-off is given here; in the data, active = GI50 up to about 1.1 µM and inactive = higher.
OBSERVABLE: GI50

Worked cases, answers included:
- CCC12C=CCN3CC[C@]4(C(=C(C(=O)OC)[C@@H]1Nc1ccn(C5OC(COC(C)=O)C(OC(C)=O)C5OC(C)=O)c(=O)n1)Nc1ccccc14)C32 (some centres undefined): 1.82 µM (inactive)
- O=C(Nc1sccc1S(=O)(=O)c1ccc(Cl)cc1)c1ccc(F)cc1F: 27.8 µM (inactive)
- NCCCCCNOCCCN: > 100 µM (inactive)
- COc1cc(/C=N\O)cc(/C=N/O)c1O: 44.3 µM (inactive)
- O=C(O)CCNC(=O)c1cc(N(CCBr)CCBr)c([N+](=O)[O-])cc1[N+](=O)[O-]: > 100 µM (inactive)
- CC(Br)C(=O)Nc1ccc(C(=O)O)c(O)c1 (centres undefined): > 100 µM (inactive)

Please fill in: GI50 reported for `O=C1c2ccccc2S(=O)(=O)c2c1cccc2[N+](=O)[O-]` = 3.45 µM (inactive)

Field GI50 (entry `CN(C)CCNc1nc(-c2ccc3ccccc3c2)nc2[nH]cnc12` ) reads 13.1 µM (inactive)

compound Brc1cccc(C2SCc3nc4ccccc4n32)c1 (centres undefined) , GI50 observed: 6.01 µM (inactive)

Lab note: `COc1ccc(/N=C2/C(=N/c3ccc(OC)cc3)N(c3ccccc3)C(=S)N2N=C=C2Sc3ccccc3N2C)cc1` gave GI50 of > 100 µM (inactive)

For this compound ( COc1ccc2c(c1)CC1NC2Cc2ccccc21 (centres undefined) ), measured GI50 is > 100 µM (inactive)

Input Cc1cc2c(cc1Br)C1(C)CCC(C)C1(C)O2 (centres undefined) . Output GI50: 23.8 µM (inactive)

# compound `Cc1c2c(n3c(nc4ccccc43)c1C#N)NCC2` ; its GI50 = > 10 µM (inactive)

Value of GI50 reported for the compound CO[C@H](C(=O)O[C@H]1C(=O)N2CC[C@@H]3CCC[C@H]1C32C)c1ccccc1 (some centres undefined) is > 100 µM (inactive)

* * *

Recorded GI50 values for a group of molecules are listed next.
# Tested on: U-251
# ASSAY_PROTOCOL: NCI tumour cell line growth inhibition, 48 h
The source made the active and inactive calls. Cut-off read from the data, not from the text of the source: active = GI50 up to about 1.1 µM and inactive = higher.

Worked set:
• CC(C)(Oc1ccc(/C=C/C(=O)c2ccc(Cl)cc2)cc1)C(=O)Nc1c(Cl)cccc1Cl = 12.5 µM (inactive)
• CCCCCCCCC[C@@H]1C[C@@H]2CCC3C(C(=O)OC)=C(C)N=C(N1)N32 (stereo not given in full) = 3.27 µM (inactive)
• COCC12CCC(OC)C34C5CC6(O)C(OC)CC(OC(C)=O)(C5C6OC(=O)c5ccccc5)C(C(OC)C13)C4N(C)C2 (stereo not given) = > 100 µM (inactive)
• Cc1cc(=O)oc2cc(OC(=O)N(CCCl)CCCl)ccc12 = > 100 µM (inactive)

// below: GI50 requested for another molecule
// recorded GI50 for `COc1ccc2c(C(=O)c3c(C)n(CCN4CCOCC4)c4ccccc34)cccc2c1` : 15.3 µM (inactive)

* * *

# System: OVCAR-5
# ASSAY_PROTOCOL: NCI tumour cell line growth inhibition, 48 h
Activity calls are given as the source filed them. Rule as the data show it: active = GI50 up to about 1.1 µM and inactive = higher.
OBSERVABLE: GI50

Some solved cases for reference:
* CC1CC(N2CCOCC2)=Nc2ccccc2N1Cc1ccccc1 (stereo not given) | > 100 µM (inactive)
* O=C(Oc1c(I)ccccc1=O)c1ccc([N+](=O)[O-])cc1 | 35.5 µM (inactive)
* CC1OC(OC2C(O[C@H]3CC[C@@]4(C)C(=CC[C@H]5[C@@H]6C[C@@H]7O[C@]8(CC[C@@H](C)CO8)[C@@H](C)[C@@H]7[C@@]6(C)CC[C@@H]54)C3)OC(CO)C(O)C2OC2OC(CO)C(O)C(O)C2O)C(O)C(O)C1O (stereo not given in full) | 13 µM (inactive)

# GI50 (compound: `CC(=O)CCCCO` ) is > 100 µM (inactive)

In plain terms, `Cc1cc(=O)oc2cc(OC(=O)N(CCCl)CCCl)ccc12` has a documented GI50 of > 100 µM (inactive)

The compound listed as `CCCN(CCC)C(=O)c1c(N2CCN(C)CC2)c2cccnc2n2c(C)cnc12` has a reported GI50 of > 100 µM (inactive)

Query `CCOC(=O)c1csc(NC(=O)CN2CCOCC2)n1` yields GI50 of > 100 µM (inactive)

Record `N#CC1(C#N)C2(c3ccccc3)OC(c3ccccc3)(c3cc4ccccc4cc32)C1(C#N)C#N` . Reported GI50: 15.8 µM (inactive)

Measured GI50, `CCOC(=O)/C(=C\c1ccccc1)C(=O)O` : > 100 µM (inactive)

CN/N=C(\C)C(CN1CCCCC1)C(C1=C(O)c2ccccc2OC1)c1ccccc1 (stereo not given) yielded GI50 of > 100 µM (inactive)

* * *

List of GI50 values.
# Tested on: OVCAR-8
# ASSAY_PROTOCOL: NCI tumour cell line growth inhibition, 48 h
Active and inactive are the calls of the source. Cut-off read from the data, not from the text of the source: active = GI50 up to about 1.1 µM and inactive = higher.

A selection of reference data follows.
- CC(C)=CC1C(COC(=O)c2cc3c(cc2Cl)OCO3)C1(C)C (stereo unspecified): 34.8 µM (inactive)
- COc1cccc2c1C(=O)c1c(O)c3c(c(O)c1C2=O)CC(O)(C(O)CO)CC3OC1CC2C(OC3COCC(C#N)N32)C(C)O1 (stereo unspecified): < 0.01 µM (active)
- COC(=N)C12C(N)=NC(OC)(OC)C1(C#N)C21C(=O)N(c2ccccc2)N=C1C (stereo unspecified): > 100 µM (inactive)
- NCCCCCNOCCCN: > 100 µM (inactive)
- CCNC(=S)N/N=C(\C)c1cccc(C)n1: 3.44 µM (inactive)
- CC1(C)[C@@H]2CC[C@@]1(C)CN(CCC[N+](C)(C)C)C2: > 100 µM (inactive)

Record for `N#C/N=C(/NCCc1c[nH]c2ccccc12)Oc1ccccc1` under target or system OVCAR-8: GI50 reported as > 100 µM (inactive)

Readout GI50 for `CCOC(=O)/C(=C\c1cccc(C)c1)C(C)=O` , test system OVCAR-8, was 21.6 µM (inactive)

Entry `O=S(=O)(c1cc(Cl)ccc1Cl)N1CCN(S(=O)(=O)c2cc(Cl)ccc2Cl)CC1` ; assay system OVCAR-8; GI50 recorded at > 100 µM (inactive)

Hey, OVCAR-8 data for `Cc1cccc(/N=N/c2c(C)nn(C(=O)CC(=O)Nc3ccccc3)c2C)c1` : GI50 came out at > 100 µM (inactive)

# lookup: `CC(=O)O[C@@H]1C(=O)N(c2ccccc2)[C@@H]1c1cc2ccccc2c2ccccc12` on OVCAR-8, GI50 = 24.5 µM (inactive)

Measured on OVCAR-8, COC(=O)/C=C(C)/C=C\COC1CCCCO1 (stereo unspecified) has a documented GI50 of > 100 µM (inactive)

GI50 for OVCAR-8 with input `COc1ccc([N+](=O)[O-])c2c(NCCCN(C)C)c(C)c(C)nc12` equals > 100 µM (inactive)

Readout GI50 for `CC(C)(C)C1CCC2(CC1)CCN(CCCN1CCOCC1)CC2` , test system OVCAR-8, was > 81.1 µM (inactive)

* * *

# System: KM12
# ASSAY_PROTOCOL: NCI tumour cell line growth inhibition, 48 h
The source made the active and inactive calls. Rule as the data show it: active = GI50 up to about 1.1 µM and inactive = higher.
OBSERVABLE: GI50

Examples with their reported GI50 follow.
• CC1(C)C(CCO)CC1n1cc(I)c(=O)[nH]c1=O (stereo not given) = > 100 µM (inactive)
• Cc1cc(=O)oc2cc(OC(=O)N(CCCl)CCCl)ccc12 = > 100 µM (inactive)
• COC(=O)c1cc(O)ccc1NC(=O)c1ccc(O)cc1 = > 100 µM (inactive)
• Cc1nc(-n2nc(-c3ccccc3)cc2-c2ccccc2)sc1C(/C=C/c1ccc([N+](=O)[O-])cc1)=N/NC(=O)c1ccncc1 = 4.06 µM (inactive)
• CCN(CC)Cc1cc(Nc2ccnc3ccc4c(nnn4C)c23)ccc1O = 14.9 µM (inactive)
• CC1CC(N2CCOCC2)=Nc2ccccc2N1Cc1ccccc1 (stereo not given) = 68.7 µM (inactive)

Kindly note the recorded GI50 for CCN(CC)CCNC(=O)C1COc2ccc(-c3cc(=O)c4ccccc4o3)cc2O1 (stereo not given) , which is 18.2 µM (inactive)

* * *

# System: K562
# ASSAY_PROTOCOL: NCI tumour cell line growth inhibition, 48 h
Activity calls are given as the source filed them. Cut-off read from the data, not from the text of the source: active = GI50 up to about 1.1 µM and inactive = higher.
Your reply should match one of these outcome classes. t = active, f = inactive

Worked set:
- CCOC(=O)/C(=C\c1cccc(C)c1)C(C)=O: f
- C[C@]12CC[C@H](OC(=O)Nc3ccccc3)CC1=CC[C@@H]1C2CC[C@]2(C)/C(=N/OC(=O)Nc3ccccc3)CCC12 (some centres undefined): f
- CO[C@H](C(=O)O[C@H]1C(=O)N2CC[C@@H]3CCC[C@H]1C32C)c1ccccc1 (some centres undefined): f
- O=C1c2ccccc2S(=O)(=O)c2c1cccc2[N+](=O)[O-]: f

Field: outcome | Entry: COCCCNC(=O)C1C(=O)C(=O)N(CCCOC)C1=O (centres undefined)
f

GET /call?item= `Cc1cc(Cl)ccc1OCC(=O)Oc1c(Cl)c(Cl)c(Cl)c(Cl)c1Cl` returns the recorded outcome of this test.
f

I'd appreciate the recorded outcome for `COC(=O)N1CCc2c(nc(N(C)CCO)[nH]c2=O)C1` from this test.
f

Hi, sorry to bother you, what did the test record for `CCNc1ncnc2nn[nH]c12` ?
f

What did this assay record as the result for `CCCCn1c(C)c(C(=O)OCC)s/c1=N/Nc1nc2ccccc2nc1-c1ccccc1` ?
f

Short answer needed: outcome of this test for `C/C(=N\NC(=S)NC(C)C)c1nc2cccnc2[nH]1` ?
f

Hi, sorry to bother you, what did the test record for COc1cc(/C=C2\CCC(C)C3C2=NN(C(C)=O)C3c2cc(OC)c(OC)c(OC)c2)cc(OC)c1OC (centres undefined) ?
f

So what was the verdict on `N#C/N=C(/NCCc1c[nH]c2ccccc12)Oc1ccccc1` in this test?
f

What was the test verdict on `COc1ccc(/C=C/C(=O)Oc2cc(O)cc(O)c2)cc1` ?
f

Returns: the outcome recorded for Cc1ccc(S(=O)(=O)OCCC2CN(C(=O)OCc3ccccc3)C(C)(C)O2)cc1 (centres undefined) in this assay.
f

GET /call?item= COC(O)C(=O)c1c2c(cc3c1CCC3)CCC2 (centres undefined) returns the recorded outcome of this test.
f

Check the results log: what was the call for `Nc1nc(-c2cccs2)cs1` ?
f

Answer briefly: the call reported for `O=c1cn[nH]c(=S)n1/N=C/c1c[nH]c2ccccc12` in this assay.
f

# lookup: test call for COC(=O)/C=C(C)/C=C\COC1CCCCO1 (centres undefined)
f

Test call for this molecule, please: CCc1cccc(C(C)C)c1NC(=O)CC1Sc2ccccc2NC1=O (centres undefined)
f
